- measurement notes: Inhibition of quorum sensing system in Pseudomonas aeruginosa PAO1 MH602 harboring lasB promoter fused with GFP-ASV assessed as reduction in GFP-ASV reporter protein expression at 88 uM measured every 30 mins relative to control
quantity measured: inhibition

| compound | value reported |
| --- | --- |
| CCCC(S)C1=CC(=C(Br)Br)OC1=O (stereo unspecified) | 17.9% |
| CCCCCCCCCCCC(O[N+](=O)[O-])C1=CC(=C(Br)Br)OC1=O (stereo unspecified) | 29% |
| CCCC(OC(=O)CO/N=[N+](\[O-])N1CCN(C(=O)OCC)CC1)C1=CC(=C(Br)Br)OC1=O (stereo unspecified) | 41.5% |
| CCCCC1=C(Br)/C(=C/Br)OC1=O | 39.9% |
| CC(O[N+](=O)[O-])C1=CC(=C(Br)Br)OC1=O (stereo unspecified) | 70.4% |
| CCCCCCC(O[N+](=O)[O-])C1=CC(=C(Br)Br)OC1=O (stereo unspecified) | 29.9% |
| CCCC(O)C1=CC(=C(Br)Br)OC1=O (stereo unspecified) | 62.9% |
| CCCCC1=CC(=C(Br)Br)OC1=O | 34.1% |
| CCCCCCCC(O[N+](=O)[O-])C1=CC(=C(Br)Br)OC1=O (stereo unspecified) | 19.2% |
| CCCCCCCCCCCC(OC(=O)CCC(=O)N1CCN(/[N+]([O-])=N/OC)CC1)C1=CC(=C(Br)Br)OC1=O (stereo unspecified) | 6% |
| CCCC(OC(=O)CCCCCO[N+](=O)[O-])C1=CC(=C(Br)Br)OC1=O (stereo unspecified) | 18.8% |
| CCCC(OC(=O)CCO[N+](=O)[O-])C1=CC(=C(Br)Br)OC1=O (stereo unspecified) | 62.8% |
| CCCC(SC(=O)CCO[N+](=O)[O-])C1=CC(=C(Br)Br)OC1=O (stereo unspecified) | 51.5% |
| CCCC(OC(=O)CCC(=O)N1CCN(/[N+]([O-])=N/OC)CC1)C1=CC(=C(Br)Br)OC1=O (stereo unspecified) | 39.3% |
| CCCC(OC(=O)CCCO[N+](=O)[O-])C1=CC(=C(Br)Br)OC1=O (stereo unspecified) | 28.6% |

====

- measurement notes: Induction of nitric oxide release in PBS buffer supplemented with L-cysteine, xanthine, xanthine oxidase assessed as nitrite release at 250 to 500 uM after 1 hr by Griess assay
- Assay type: physicochemical

| compound | Activity |
| --- | --- |
| CCCC(OC(=O)CCCCCCCCCCO[N+](=O)[O-])C1=CC(=C(Br)Br)OC1=O (stereo not given) | Active |
| CCCC(OC(=O)CCCO[N+](=O)[O-])C1=CC(=C(Br)Br)OC1=O (stereo not given) | 1 µM |
| CCCCCC(O[N+](=O)[O-])C1=CC(=C(Br)Br)OC1=O (stereo not given) | 1 µM |
| O=[N+]([O-])O[C@H]1CO[C@H]2[C@@H]1OC[C@H]2O[N+](=O)[O-] [ISOSORBIDE DINITRATE] | 4 µM |
| CCCCCCCC(O[N+](=O)[O-])C1=CC(=C(Br)Br)OC1=O (stereo not given) | Active |
| CCCC(OC(=O)CCCCCCCO[N+](=O)[O-])C1=CC(=C(Br)Br)OC1=O (stereo not given) | 1 µM |
| CCCC(SC(=O)CCCO[N+](=O)[O-])C1=CC(=C(Br)Br)OC1=O (stereo not given) | Active |
| CCCC(O[N+](=O)[O-])C1=CC(=C(Br)Br)OC1=O (stereo not given) | 1 µM |
| CCCC(SC(=O)CCCCCO[N+](=O)[O-])C1=CC(=C(Br)Br)OC1=O (stereo not given) | Active |
| CCCC(SC(=O)CCO[N+](=O)[O-])C1=CC(=C(Br)Br)OC1=O (stereo not given) | 1 µM |

====

inhibition values, listed per item
- measurement notes: Inhibition of quorum sensing system in Pseudomonas aeruginosa PAO1 MH602 harboring lasB promoter fused with GFP-ASV assessed as reduction in GFP-ASV reporter protein expression at 266 uM measured every 30 mins relative to control

| molecule | readout units | inhibition |
| --- | --- | --- |
| CCCC(OC(=O)CO/N=[N+](\[O-])N1CCOCC1)C1=CC(=C(Br)Br)OC1=O (stereo not given) | % | 72.1 |
| CC(O[N+](=O)[O-])C1=CC(=C(Br)Br)OC1=O (stereo not given) | % | 94.3 |
| CCCC(OC(=O)CO/N=[N+](\[O-])N(CC)CC)C1=CC(=C(Br)Br)OC1=O (stereo not given) | % | 74.8 |
| CCCC(SC(=O)CCCO[N+](=O)[O-])C1=CC(=C(Br)Br)OC1=O (stereo not given) | % | 54.2 |
| CCCCCCCCCCCC(OC(=O)CC(=O)N1CCN(/[N+]([O-])=N/OC)CC1)C1=CC(=C(Br)Br)OC1=O (stereo not given) | % | 40.9 |

====

- measurement notes: Inhibition of quorum sensing system in Pseudomonas aeruginosa PAO1 MH602 harboring lasB promoter fused with GFP-ASV assessed as reduction in GFP-ASV reporter protein expression at 9.8 uM measured every 30 mins relative to control
The source made the active and inactive calls. The calls are words filed in the database; no cut-off is given here.
quantity measured: inhibition

| compound | value reported |
| --- | --- |
| CCCC(OC(=O)CO/N=[N+](\[O-])N(CC)CC)C1=CC(=C(Br)Br)OC1=O (stereo unspecified) | 6.2% |
| CCCC(SC(=O)CCCO[N+](=O)[O-])C1=CC(=C(Br)Br)OC1=O (stereo unspecified) | inactive |
| CCCC(S)C1=CC(=C(Br)Br)OC1=O (stereo unspecified) | 1.5% |
| CCCCCC(O[N+](=O)[O-])C1=CC(=C(Br)Br)OC1=O (stereo unspecified) | inactive |
| CCCC(OC(=O)CCO[N+](=O)[O-])C1=CC(=C(Br)Br)OC1=O (stereo unspecified) | 12.5% |
| CCCCCC(OC(=O)CC(=O)N1CCN(/[N+]([O-])=N/OC)CC1)C1=CC(=C(Br)Br)OC1=O (stereo unspecified) | 9.5% |
| CCCCCCCCCCCC(OC(=O)CCC(=O)N1CCN(/[N+]([O-])=N/OC)CC1)C1=CC(=C(Br)Br)OC1=O (stereo unspecified) | inactive |
| CCCCCCCCCCCC(OC(=O)CC(=O)N1CCN(/[N+]([O-])=N/OC)CC1)C1=CC(=C(Br)Br)OC1=O (stereo unspecified) | inactive |
| CCCCC1=CC(=C(Br)Br)OC1=O | inactive |
| CCCC(SC(=O)CCCCCO[N+](=O)[O-])C1=CC(=C(Br)Br)OC1=O (stereo unspecified) | inactive |
| CCCC(OC(=O)CCC(=O)N1CCN(/[N+]([O-])=N/OC)CC1)C1=CC(=C(Br)Br)OC1=O (stereo unspecified) | 4.6% |
| CCCCC1=C(Br)/C(=C/Br)OC1=O | inactive |
| CCCC(O[N+](=O)[O-])C1=CC(=C(Br)Br)OC1=O (stereo unspecified) | 22.4% |
| CCCCCCC(O[N+](=O)[O-])C1=CC(=C(Br)Br)OC1=O (stereo unspecified) | inactive |
| CCCCCCCC(O[N+](=O)[O-])C1=CC(=C(Br)Br)OC1=O (stereo unspecified) | inactive |
| CC(O[N+](=O)[O-])C1=CC(=C(Br)Br)OC1=O (stereo unspecified) | inactive |
| CCCCCCCCCCCC(O[N+](=O)[O-])C1=CC(=C(Br)Br)OC1=O (stereo unspecified) | inactive |
| CCCC(OC(=O)CCCCCO[N+](=O)[O-])C1=CC(=C(Br)Br)OC1=O (stereo unspecified) | inactive |
| CCCC(OC(=O)CCCCCCCCCCO[N+](=O)[O-])C1=CC(=C(Br)Br)OC1=O (stereo unspecified) | inactive |
| CCCC(OC(=O)CCCO[N+](=O)[O-])C1=CC(=C(Br)Br)OC1=O (stereo unspecified) | 8% |
| CCCC(OC(=O)CO[N+](=O)[O-])C1=CC(=C(Br)Br)OC1=O (stereo unspecified) | 23.2% |
| CCCC(OC(=O)CO/N=[N+](\[O-])N1CCN(C(=O)OCC)CC1)C1=CC(=C(Br)Br)OC1=O (stereo unspecified) | 4% |
| CCCC(O)C1=CC(=C(Br)Br)OC1=O (stereo unspecified) | 16.7% |
| CCCC(OC(=O)CO/N=[N+](\[O-])N1CCOCC1)C1=CC(=C(Br)Br)OC1=O (stereo unspecified) | inactive |
| CCCC(OC(=O)CCCCCCCO[N+](=O)[O-])C1=CC(=C(Br)Br)OC1=O (stereo unspecified) | inactive |
| CCCC(SC(=O)CCO[N+](=O)[O-])C1=CC(=C(Br)Br)OC1=O (stereo unspecified) | inactive |

# credit: ChEMBL document CHEMBL3102710
